Molecular target: T1, human IL-33 (R&D Systems, #3625-IL-010/CF) (human, UniProt O95760 112-270)
T1 construct: Commercial recombinant protein; also called hIL-33; interleukin-33
T1 sequence (looked up): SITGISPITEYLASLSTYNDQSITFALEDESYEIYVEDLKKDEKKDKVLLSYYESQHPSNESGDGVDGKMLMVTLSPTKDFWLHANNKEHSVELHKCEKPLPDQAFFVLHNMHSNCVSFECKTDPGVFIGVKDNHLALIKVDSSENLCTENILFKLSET
Experiment: SPR 25C, pH6.0 chase, mAb captured
measuredEndpoint: t½ Ratio (pH 7.4/pH 6.0)

Q. Reported t½ Ratio (pH 7.4/pH 6.0), binder H4H9629P (antibody, human IgG4, V domains shown, Human IgG4 Fc (H4H)) VH: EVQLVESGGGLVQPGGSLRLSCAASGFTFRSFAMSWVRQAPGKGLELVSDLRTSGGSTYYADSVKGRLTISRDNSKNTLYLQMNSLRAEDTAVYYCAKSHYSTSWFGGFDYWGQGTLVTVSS VL: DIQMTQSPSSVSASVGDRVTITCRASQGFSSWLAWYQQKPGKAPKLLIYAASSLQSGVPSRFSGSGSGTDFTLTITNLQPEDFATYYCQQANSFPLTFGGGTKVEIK : ____
A. 5.7

Q. Any idea what its t½ Ratio (pH 7.4/pH 6.0) is? The binder is H4H9675P (antibody, human IgG4, V domains shown, Human IgG4 Fc (H4H)) VH: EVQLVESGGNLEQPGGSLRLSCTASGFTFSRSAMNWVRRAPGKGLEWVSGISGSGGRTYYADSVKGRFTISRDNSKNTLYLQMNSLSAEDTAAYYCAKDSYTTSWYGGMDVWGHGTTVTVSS VL: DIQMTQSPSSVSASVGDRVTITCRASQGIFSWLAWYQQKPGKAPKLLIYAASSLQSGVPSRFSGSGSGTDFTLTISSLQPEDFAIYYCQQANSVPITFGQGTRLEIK
A. 4.3

Q. I am curious: what t½ Ratio (pH 7.4/pH 6.0) value has been reported for H1M9566N (antibody, mouse IgG1, V domains shown, Human variable domains, mouse IgG1 Fc (H1M)) VH: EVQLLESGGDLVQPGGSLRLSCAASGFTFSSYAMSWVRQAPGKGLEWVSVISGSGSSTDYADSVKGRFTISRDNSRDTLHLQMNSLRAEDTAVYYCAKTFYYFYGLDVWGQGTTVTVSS VL: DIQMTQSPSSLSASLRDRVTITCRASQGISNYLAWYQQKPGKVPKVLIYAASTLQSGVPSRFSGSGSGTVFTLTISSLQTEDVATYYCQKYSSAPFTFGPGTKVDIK ?
A. 11
